// data source = patent US20120301468A1

Please respond with reported pKd for every item in the list.
molecular target: human MN protein, entire extra-cellular domain with a C-terminal histag, expressed in HKB-11 cells (human, UniProt Q16790 38-414); test: SPR, BIAcore 3000, IgG captured by anti-human IgG Fc, MN as analyte, 1:1 Langmuir fit
One number for each entry, as −log10 of the molar value.

A selection of reference data follows.
>>> reported_measurement("1e4 full-length human IgG1 (antibody, V domains shown, Full-length human IgG1 made from the Fab (IgG1 constant region PIR J00228); Only CDRs are tied to the name; also called monoclonal IgG1 1e4; anti-MN antibody 1e4) VH: ELVESGGGLVQPGGSLRLSCAASGFTFSNNAMNWVRQAPGKGLEWVSGISYDSSKTYYADSVKGRFTISRDNSKNTLYLQMNSLRAEDTAVYYCARLTYTGAYRWGQGTLVTVSS VL: DIELTQPPSVSVAPGQTARISCSGDNLGSYYVHWYQQKPGQAPVLVIYDDNNRPSGIPERFSGSNSGNTATLTISGTQAEDEADYYCQSYDFGKVVFGGGTKLTVL")
8.30
>>> reported_measurement("1aa1 full-length human IgG1 (antibody, V domains shown, Full-length human IgG1 made from the Fab; Only CDRs are tied to the name) VH: QVELVQSGAEVKKPGASVKVSCKASGYTFTTNYMHWVRQAPGQGLEWMGIINPHNGSTSYAQKFQGRVTMTRDTSISTAYMELSSLRSEDTAVYYCARGRYFLMDVWGQGTLVTVSS VL: DIQMTQSPSSLSASVGDRVTITCRASQNILSYLNWYQQKPGKAPKLLIYAASSLQSGVPSRFSGSGSGTDFTLTISSLQPEDFAVYYCQQYGSVPTFGQGTKVEIK")
7.57
>>> reported_measurement("3ef2 full-length human IgG1 (antibody, V domains shown, Full-length human IgG1 made from the Fab; Only CDRs are tied to the name) VH: QVELVESGGGLVQPGGSLRLSCAASGFTFSSYGMHWVRQAPGKGLEYVSAISYSSSSTSYADSVKGRFTISRDNSKNTLYLQMNSLRAEDTAVYYCARLSYTGFAVWGQGTLVTVSS VL: DIELTQPPSVSVAPGQTARISCSGDNLGSYYVHWYQQKPGQAPVLVIYDDNNRPSGIPERFSGSNSGNTATLTISGTQAEDEADYYCQSYDFGKVVFGGGTKLTVL")
8.22
>>> reported_measurement("3ee9 full-length human IgG1 (antibody, V domains shown, Only CDRs are tied to the name; also called unconjugated antibody 3ee9; antibody portion of 3ee9/MMAE) VH: QVELVESGGGLVQPGGSLRLSCAASGFTFSSYGMSWVRQAPGKGLEWVSGISSLGSTTYYADSVKGRFTISRDNSKNTLYLQMNSLRAEDTAVYYCARTGSPGTFMHGDHWGQGTLVTVSS VL: DIQMTQSPSSLSASVGDRVTITCRASQDINNYLSWYQQKPGKAPKLLIYGASNLQSGVPSRFSGSGSGTDFTLTISSLQPEDFAVYYCQQYYGRPTTFGQGTKVEIKR")
8.40

Problem: Fill in reported pKd for this entry: 5aa3 full-length human IgG1 (antibody, V domains shown, Full-length human IgG1 made from the Fab; Only CDRs are tied to the name) VH: QVELVQSGAEVKKPGESLKISCKGSGYSFTGYISWVRQAPGKGLEWMGIIYPGDSYTNYSPSFQGQVTISADKSISTAYLQWSSLKASDTAMYYCARYSGPNWDVMDSWGQGTLVTVSS VL: DIVLTQPPSVSGAPGQRVTISCSGSSSNIGSYYVNWYQQLPGTAPKLLIYADDKRPSGVPDRFSGSKSGTSASLAITGLQSEDEADYYCQSYDSTKDDSVFGGGTKLTVL
Result: 9.00
